Target: Nuclear receptor ROR-alpha (→)
Assay: Inverse agonist activity at GAL4-fused human RORa expressed in HEK293 cells assessed as suppression of basal transcriptional activity after 20 hrs by dual-glo luciferase reporter gene assay
quantity_kind: EC50 (µM)
Field: numeric (µM). Do not append units.

response.value for O=C(Nc1ccc2c(c1)N(S(=O)(=O)c1ccc(F)cc1)CC2)c1c(F)cccc1F (field: EC50) = 12

###

# maps each entry to its Papp A→B at 1 h, 100 µM
Test: Apparent permeability across apical to basolateral side in MDCK cells at 100 uM after 60 mins by HPLC analysis
Assay type: ADME, cell-based, Canis lupus familiaris
Details: dog
Field: numeric (×10⁻⁶ cm/s). Do not append units.

response.value for O=C(Nc1ccc2c(c1)N(S(=O)(=O)c1ccc(F)cc1)CCC2)c1ccccc1Cl (field: Papp A→B at 1 h, 100 µM) = 12

###

Experiment: Apparent permeability across apical to basolateral side in MDCK cells at 100 uM after 60 mins by HPLC analysis
Assay type: ADME, cell-based, Canis lupus familiaris
Conditions: dog
quantity_kind: Papp A→B at 1 h, 100 µM (×10⁻⁶ cm/s)
Field: numeric (×10⁻⁶ cm/s). Do not append units.

Worked cases, answers included:
response.value for O=C(Nc1ccc2c(c1)N(S(=O)(=O)c1ccc(F)cc1)CC2)c1c(F)cccc1F (field: Papp A→B at 1 h, 100 µM) = 16

response.value for O=C(Nc1ccc2c(c1)N(S(=O)(=O)c1ccc(F)cc1)CCC2)c1c(F)cccc1F (field: Papp A→B at 1 h, 100 µM) = 22

Proceeding to the next molecule to report its Papp A→B at 1 h, 100 µM.
response.value for O=C(Nc1ccc2c(c1)N(S(=O)(=O)c1ccc(F)cc1)CCC2)c1c(F)cccc1Cl (field: Papp A→B at 1 h, 100 µM) = 12
